Reference for the values: patent US20240246964A1

Recorded pEC50 values for a group of compounds are listed next.
- subject_of_test: human PD-L1 (Homo sapiens (Human))
- protocol_text: T cell activation luciferase reporter cell culture system (T Cell Activation Assay)
- Type: cell-based
- details: luciferase reporter assay; PD-L1 aAPC/CHO-K1 cells with PD-1 effector Jurkat T cells
Please note pEC50 is a logarithmic value: minus log10 of concentration in mol/L. Answer with that number alone.

Here's what some known entries look like.
compound="COc1cc(-c2nccc(-c3cccc(-c4ccc(CNC[C@@H]5CCC(=O)N5)c(OC)n4)c3Cl)c2Cl)cc2c1CN(C[C@H]1C[C@H](O)C1)CC2 [Cmpd 133]" assay_metric=pEC50 assay_value=7.67
compound="COc1cc(-c2nccc(-c3cccc(-c4ccc(CN5CC6(CNC(=O)C6)C5)c(OC)n4)c3Cl)c2Cl)ccc1CN[C@H]1CC[C@@H](O)CC1 [Example 503]" assay_metric=pEC50 assay_value=7.44
compound="COc1cc(-c2nccc(-c3cccc(-c4ccc(CNC5CC(=O)NC(=O)C5)c(OC)n4)c3Cl)c2Cl)ccc1CNC1CC(=O)NC(=O)C1 [Example 359]" assay_metric=pEC50 assay_value=7.39
compound="COc1cc(-c2nccc(-c3cccc(-c4ccc5c(CNCCO)cn(C)c5n4)c3Cl)c2Cl)ccc1CNC1CCN(C(C)=O)CC1 [Example 559]" assay_metric=pEC50 assay_value=7.14
compound="COc1nc(-c2cccc(-c3ccnc(-c4ccc5c(c4)CCCC5NC[C@@H]4CCC(=O)N4)c3Cl)c2Cl)ccc1CNC[C@@H]1CCC(=O)N1 (mixture of isomers) [Compound 112]" assay_metric=pEC50 assay_value=7.30

**Query** Can you share its pEC50? I mean this compound: COc1cc(-c2nccc(-c3cccc(-c4ccc(CN5CC6(CNC(=O)C6)C5)c(OC)n4)c3Cl)c2Cl)cc2c1CN(CCC(=O)O)CC2 [Example 294]
**Result** 7.13

====

The following compounds are listed with their measured log10 of EC50 values.
- subject_of_test: human PD-L1 (Homo sapiens (Human), UniProt Q9NZQ7)
- Sequence (Q9NZQ7 19-290): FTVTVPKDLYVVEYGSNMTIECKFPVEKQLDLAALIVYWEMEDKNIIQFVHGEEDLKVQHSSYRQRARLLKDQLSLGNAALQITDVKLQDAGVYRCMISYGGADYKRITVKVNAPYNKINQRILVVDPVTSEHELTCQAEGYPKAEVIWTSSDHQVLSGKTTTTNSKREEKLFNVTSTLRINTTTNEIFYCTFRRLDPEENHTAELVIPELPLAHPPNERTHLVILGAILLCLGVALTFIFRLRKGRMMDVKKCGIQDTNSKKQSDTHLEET
- protocol_text: T cell activation luciferase reporter cell culture system (T Cell Activation Assay)
- Assay type: cell-based
- details: luciferase reporter assay; PD-L1 aAPC/CHO-K1 cells with PD-1 effector Jurkat T cells
A value of 2 here means EC50 of 100 in nM, since values are log10.

Sample answers from the record:
smiles_structure=COc1cc(-c2nccc(-c3cccc(-c4ccc5c(CNC6CCOCC6)cn(C)c5n4)c3Cl)c2Cl)ccc1CNC1CCOCC1 assay_metric="log10 of EC50" assay_value=2.98
smiles_structure=COc1cc(-c2nccc(-c3cccc(-c4ccc(CNC5CCN(C(C)=O)CC5)c(OC)n4)c3Cl)c2Cl)ccc1CN1CCC(NC(C)=O)CC1 assay_metric="log10 of EC50" assay_value=1.60
smiles_structure=COc1cc(-c2nccc(-c3cccc(-c4ccc(CNC5CCOCC5)c(OC)n4)c3Cl)c2Cl)ccc1CN1CC2(CNC(=O)C2)C1 assay_metric="log10 of EC50" assay_value=1.40
smiles_structure=COc1cc(-c2ncnc(-c3cccc(-c4ccc(CNC5CCOCC5)c(OC)n4)c3Cl)c2Cl)ccc1CNC1CCOCC1 assay_metric="log10 of EC50" assay_value=1.90
smiles_structure=COc1cc(-c2nccc(-c3cccc(NC(=O)c4ccc(CNC[C@@H]5CCC(=O)N5)cn4)c3C)c2Cl)cc(F)c1CNC[C@@H]1CCC(=O)N1 assay_metric="log10 of EC50" assay_value=1.69

In the following, a different compound is considered.
**Query** Quick check: log10 of EC50 of `COc1cc(-c2nccc(-c3nccc(-c4ccc(CN5CC6(CNC(=O)C6)C5)c(OC)n4)c3Cl)c2Cl)ccc1CN1CC2(CNC(=O)C2)C1` ?
**Result** 2.47
